readout: melting point

Data request: Endpoint output: melting point of COC(=O)c1ccc(C(=O)c2cnn(C)c2O)c(Br)c1N=S1(=O)CCOCC1 . Value?
Data returned: 158 to 164 °C

Data request: Endpoint output: melting point of CCOc1c(C(=O)c2cnn(C)c2O)ccc(OC)c1N=S1(=O)CCCCC1 . Value?
Data returned: 111 to 113 °C

Data request: Endpoint output: melting point of COc1ccc(C(=O)c2cnn(C)c2O)c(Cl)c1N=S1(=O)CCCC1C (stereo not shown) . Value?
Data returned: 84 to 86 °C

Data request: Endpoint output: melting point of COc1ccc(C(=O)c2cnn(C)c2OC(=O)c2ccc([N+](=O)[O-])cc2)c(Cl)c1N=S1(=O)CCCCC1 . Value?
Data returned: 151 to 154 °C

----------
For each entry below, report its melting point value.

Data request: Endpoint output: melting point of COCc1ccc(C(=O)c2cnn(C)c2O)c(Cl)c1N=S1(=O)CCCCC1 [Example 52] . Value?
Data returned: 78 to 82 °C

Data request: Endpoint output: melting point of COc1ccc(C(=O)C(C#N)C(=O)C2CC2)c(Cl)c1N=S1(=O)CCCCC1 (stereo not shown) [Example 5] . Value?
Data returned: 154 to 156 °C

Data request: Endpoint output: melting point of CCn1ncc(C(=O)c2ccc(C(=O)OC)c(N=S3(=O)CCCCC3)c2Cl)c1O [Example 30] . Value?
Data returned: 201 to 203 °C

Data request: Endpoint output: melting point of CSC(=O)Oc1c(C(=O)c2cccc(N=S3(=O)CCCCC3)c2C)cnn1C [Example 193] . Value?
Data returned: 149 to 151 °C

----------
For each entry below, report its melting point value.

Data request: Endpoint output: melting point of CCn1ncc(C(=O)c2ccc(C#N)c(N=S3(=O)CCCCC3)c2Cl)c1O [Example 187] . Value?
Data returned: 159 to 161 °C

Data request: Endpoint output: melting point of Cn1ncc(C(=O)c2ccc(OCC(F)(F)F)c(N=S3(=O)CCCCC3)c2Cl)c1O [Example 144] . Value?
Data returned: 97 to 99 °C

Data request: Endpoint output: melting point of CC(C)Oc1ccc(C(=O)c2cnn(C)c2O)c(Cl)c1N=S1(=O)CCCCC1 [Example 16] . Value?
Data returned: 139 to 141 °C

Data request: Endpoint output: melting point of COc1ccc(C(=O)c2cnn(C)c2OC(=O)C2CC2)c(Cl)c1N=S1(=O)CCCCC1 [Example 246] . Value?
Data returned: 129 to 131 °C

Data request: Endpoint output: melting point of Cn1ncc(C(=O)c2cccc(N=S3(=O)CCCCC3)c2Br)c1O [Example 196] . Value?
Data returned: 177 to 179 °C

Data request: Endpoint output: melting point of COC(=O)c1ccc(C(=O)C2=C(O)CCCC2=O)c(Cl)c1N=S(C)(C)=O [Example 160] . Value?
Data returned: 135 to 137 °C

Data request: Endpoint output: melting point of COc1ccc(C(=O)c2cnn(C)c2O)c(OC)c1N=S1(=O)CCOCC1 [Example 133] . Value?
Data returned: 72 to 74 °C

----------
readout: melting point

Data request: Endpoint output: melting point of COc1ccc(C(=O)c2cnn(C)c2O)c(OC)c1N=S1(=O)CCCCC1 . Value?
Data returned: 116 to 118 °C

Data request: Endpoint output: melting point of COCOc1ccc(C(=O)c2cnn(C)c2O)c(Cl)c1N=S1(=O)CCCCC1 . Value?
Data returned: 93 to 95 °C

Data request: Endpoint output: melting point of COc1c(N=S2(=O)CCCCC2)cccc1C(=O)c1cnn(C)c1O . Value?
Data returned: 121 to 123 °C

Data request: Endpoint output: melting point of COc1ccc(C(=O)c2cnn(C(C)(C)C)c2O)c(Cl)c1N=S1(=O)CCCCC1 . Value?
Data returned: 200 to 202 °C

Data request: Endpoint output: melting point of Cn1ncc(C(=O)c2ccc(Oc3ccccc3)c(N=S3(=O)CCCCC3)c2Cl)c1O . Value?
Data returned: 134 to 137 °C

Data request: Endpoint output: melting point of Cn1ncc(C(=O)c2ccc(OC[S+](C)[O-])c(N=S3(=O)CCCCC3)c2Cl)c1O (centres unmarked) . Value?
Data returned: 95 to 97 °C

Data request: Endpoint output: melting point of Cn1ncc(C(=O)c2ccc(OC3CCCC3)c(N=S3(=O)CCCCC3)c2Cl)c1O . Value?
Data returned: 145 to 148 °C

Data request: Endpoint output: melting point of CC(C)c1ccc(C(=O)c2cnn(C)c2O)c(Cl)c1N=S1(=O)CCCCC1 . Value?
Data returned: 102 to 104 °C

Data request: Endpoint output: melting point of Cc1ccc(C(=O)c2cnn(C)c2O)c(C)c1N=S(C)(C)=O . Value?
Data returned: 133 to 135 °C

Data request: Endpoint output: melting point of CCn1ncc(C(=O)c2ccc(C(=O)OC)c(N=S3(=O)CCOCC3)c2Br)c1O . Value?
Data returned: 210 to 215 °C

Data request: Endpoint output: melting point of COc1ccc(C(=O)C2=C(O)CCCC2=O)c(Cl)c1N=S(C)(=O)c1cccs1 (centres unmarked) . Value?
Data returned: 159 to 162 °C

----------
readout: melting point

Data request: Endpoint output: melting point of CCOC(=O)c1ccc(C(=O)c2cnn(C)c2O)c(Cl)c1N=S1(=O)CCCCC1 [Example 47] . Value?
Data returned: 88 to 91 °C

Data request: Endpoint output: melting point of COc1ccc(C(=O)c2cnn(C)c2O)c(Br)c1N=S1(=O)CCCCC1 [Example 223] . Value?
Data returned: 144 to 146 °C

Data request: Endpoint output: melting point of COC(=O)c1ccc(C(=O)c2cnn(C)c2O)c(Cl)c1N=S1(=O)CCOCC1 [Example 25] . Value?
Data returned: 147 to 149 °C
